This collection of values is drawn from patent US7122666B2.

test system: TNFα production in human whole blood; experiment: Inhibition of the production of TNFα in vitro in human whole blood (Test Examples 1 and 1′); type: cell-based; details: Table 7′, lipopolysaccharide 10 μg/ml, 6 hours at 37° C., plasma TNFα by ELISA, least squares, read-out: Inhibitory Effect on TNFα Production (in vitro) IC50
readout name: IC50 (nM)
// units = nM; emit number, no label

Query IC50 for CO[C@@H]1C[C@H]2C=C(c3c[nH]c(-c4ccc(F)cc4)c3-c3ccncc3)CCN2C1
62

Give reported IC50 value for Fc1ccc(-c2[nH]cc(C3=C[C@@H]4C[C@H](Cl)CN4CC3)c2-c2ccncc2)cc1
27

Tell us which IC50 value is on record for Fc1ccc(-c2[nH]cc(C3=CC4CC5(CCCC5)CN4CC3)c2-c2ccncc2)cc1 (racemic)
10

Please report the measured IC50 for CC[C@H]1C[C@H]2C=C(c3c[nH]c(-c4ccc(F)cc4)c3-c3ccncc3)CCN2C1
4.5
